Reference source: patent US9271971B2

Target: human recombinant adrenergic α2B receptor (Homo sapiens, UniProt P18089)
Construct: expressed in transfected cells; host or cells: Chinese hamster ovary (CHO-K1) cells
Sequence (P18089 whole entry): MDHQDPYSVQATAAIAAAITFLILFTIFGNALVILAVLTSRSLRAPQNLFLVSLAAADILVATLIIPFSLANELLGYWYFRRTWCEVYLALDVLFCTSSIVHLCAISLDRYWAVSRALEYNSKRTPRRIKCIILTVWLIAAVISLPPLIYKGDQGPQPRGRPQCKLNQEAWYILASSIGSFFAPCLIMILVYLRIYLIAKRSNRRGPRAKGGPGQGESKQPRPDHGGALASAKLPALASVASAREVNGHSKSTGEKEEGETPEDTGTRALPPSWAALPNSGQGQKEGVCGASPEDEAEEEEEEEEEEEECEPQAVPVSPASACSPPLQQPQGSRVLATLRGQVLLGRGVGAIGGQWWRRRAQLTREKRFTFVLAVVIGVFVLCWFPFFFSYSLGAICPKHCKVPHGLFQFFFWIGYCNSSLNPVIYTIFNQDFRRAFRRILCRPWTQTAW
Test: Adrenergic α2B radioligand binding assay
Details: 1 μM; [3H]Rauwolscine specific binding; read-out: Percent Inhibition of ligand binding, Adrenergic (1 μM ligand conc.) α2B
Parameter: inhibition at 1 µM (%)
Note: unit % is implicit; provide only the numeric part.

> print(dat)
                                   compound  experimental.result
1  Cc1ccc2c(c1)c1c(n2CC(=O)c2ccccc2)CN2CCC1C2 (stereo not drawn)                   20
2  Cc1ccc2c(c1)c1c(n2CC(C)(O)c2ccc(Cl)cc2Cl)CN2CCC1C2 (stereo not drawn)                   68
3  Cc1ccc2c(c1)c1c(n2CCc2ccncc2)CN2CCC1C2 (stereo not drawn)                   76
4  Cc1ccc2c(c1)c1c(n2CC(C)(O)c2ccc(Cl)cc2)CN2CCC1C2 (stereo not drawn)                  103

Record request: inhibition at 1 µM value, item Cc1ccc2c(c1)c1c(n2CC(C)(O)c2ccc(F)cc2F)CN2CCC1C2 (stereo not drawn)
90

Record request: inhibition at 1 µM value, item C/C(=C\n1c2c(c3cc(C)ccc31)C1CCN(C2)C1)c1ccc(F)cc1 (stereo not drawn)
95

====

Reported inhibition at 1 µM values for a set of molecules
Biological target: human recombinant serotonin (5-Hydroxytryptamine) 5-HT6 receptor (Homo sapiens)
Construct: expressed in transfected cells; host or cells: human HeLa cells
Sequence (P50406 whole entry): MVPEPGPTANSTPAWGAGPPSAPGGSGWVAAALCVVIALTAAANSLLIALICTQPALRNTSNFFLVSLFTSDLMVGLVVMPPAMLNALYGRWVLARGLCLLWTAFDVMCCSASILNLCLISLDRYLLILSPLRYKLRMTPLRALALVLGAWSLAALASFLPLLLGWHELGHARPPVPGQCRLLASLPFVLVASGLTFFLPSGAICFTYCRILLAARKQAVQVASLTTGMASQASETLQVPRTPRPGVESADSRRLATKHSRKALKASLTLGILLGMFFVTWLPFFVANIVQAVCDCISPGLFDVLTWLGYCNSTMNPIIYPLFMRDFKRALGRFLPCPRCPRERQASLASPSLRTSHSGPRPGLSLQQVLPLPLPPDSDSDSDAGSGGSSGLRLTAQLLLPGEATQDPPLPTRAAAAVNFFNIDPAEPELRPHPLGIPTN
Assay: Serotonin 5-HT6 radioligand binding assay
Conditions: [3H]LSD specific binding, read-out: Percent Inhibition of ligand binding, Serotonin (1 μM ligand concentration) 5-HT6
Procedure: To evaluate in radioligand binding assays the activity of compounds of the invention, human recombinant serotonin (5-Hydroxytryptamine) 5-HT6 receptor expressed in human HeLa cells [Monsma, F. J. Jr et al., Mol. Pharmacol. (1993), 43:320] in a modified Tris-HCl buffer (50 mM Tris-HCl, pH 7.4, 150 mM NaCl, 2 mM Ascorbic Acid, 0.001% BSA) was used. […] Receptor proteins were filtered and washed, the filters were then counted to determine[3H]LSD specifically bound. […]
Note: unit % is implicit; provide only the numeric part.

Use the examples below as a reference point.
> print(dat)
                                   molecule  experimental.result
1  COc1ccc(C(O)Cn2c3c(c4cc(C)ccc42)C2CCN(C3)C2)cc1F (stereo not drawn)                   22
2  Cc1ccc2c(c1)c1c(n2CC(C)(O)c2ccc(Cl)cc2)CN2CCC1C2 (stereo not drawn)                   29

Could you now consider this next molecule?
Record request: inhibition at 1 µM value, item Cc1ccc2c(c1)c1c(n2CC(C)(O)c2ccc(Cl)cc2Cl)CN2CCC1C2 (stereo not drawn)
1

====

Molecular target: human recombinant serotonin (5-Hydroxytryptamine) 5-HT2C receptor (Homo sapiens)
Construct: expressed in transfected cells; host or cells: Chinese hamster ovary (CHO-K1) cells
Assay: Serotonin 5-HT2C radioligand binding assay
Settings: [3H]Mesulergine specific binding, read-out: Percent Inhibition of ligand binding, Serotonin (1 μM ligand concentration) 5-HT2C
Classify by inhibition at 1 µM. Ranges: low end = under 50%, middle = from 50% up to 90%, high end = 90% and over

The following molecules have reported results that may help.
> print(dat)
                                   molecule  discrete.label
1  Cc1ccc(C(C)(O)Cn2c3c(c4cc(C)ccc42)C2CCN(C3)C2)cc1 (centres unmarked) [Compound 20]        high end
2  Cc1ccc2c(c1)c1c(n2CC(C)(O)c2ccc(Cl)cc2Cl)CN2CCC1C2 (centres unmarked) [Compound 14]          middle
3  C/C(=C\n1c2c(c3cc(C)ccc31)C1CCN(C2)C1)c1ccc(Cl)cc1Cl (centres unmarked) [Compound 33]        high end

Below: the item to evaluate.
State the class of the molecule shown: COc1ccc(C(O)Cn2c3c(c4cc(C)ccc42)C2CCN(C3)C2)cc1OC (centres unmarked) [Compound 8]
low end

====

Biological target: human recombinant dopamine D2L receptor (Homo sapiens, UniProt P14416)
Sequence (P14416 whole entry): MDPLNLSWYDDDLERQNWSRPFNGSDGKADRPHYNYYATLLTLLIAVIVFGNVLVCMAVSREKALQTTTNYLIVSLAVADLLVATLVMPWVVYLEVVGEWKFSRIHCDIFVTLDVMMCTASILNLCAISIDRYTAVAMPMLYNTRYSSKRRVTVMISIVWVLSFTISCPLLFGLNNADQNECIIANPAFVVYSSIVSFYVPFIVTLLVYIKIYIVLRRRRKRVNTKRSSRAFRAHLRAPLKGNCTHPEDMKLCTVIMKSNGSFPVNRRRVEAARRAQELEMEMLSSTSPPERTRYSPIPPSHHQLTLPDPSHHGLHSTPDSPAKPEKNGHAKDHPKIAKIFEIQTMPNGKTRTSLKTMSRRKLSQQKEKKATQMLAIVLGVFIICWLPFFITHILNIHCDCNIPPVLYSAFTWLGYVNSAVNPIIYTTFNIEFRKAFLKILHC
Experiment: Dopamine D2L radioligand binding assay
Conditions: [3H]Spiperone specific binding, read-out: Percent Inhibition of ligand binding, Dopamine (1 μM ligand conc.) D2L
Description: To evaluate in radioligand binding assays the activity of compounds of the invention, human recombinant dopamine D2L receptor expressed in Chinese hamster ovary (CHO) cells [Grandy, D. K. et al. Proc. Natl. Acad. Sci. USA. (1989), 86:9762; Hayes, G. et al., Mol. Endocrinol. […] Receptor proteins were filtered and washed, the filters were then counted to determine [^3H]Spiperone specifically bound. […]
Parameter: inhibition at 1 µM (%)
Note: unit % is implicit; provide only the numeric part.

> print(dat)
                                   compound  unit.of.measurement  experimental.result
1  C/C(=C\n1c2c(c3cc(C)ccc31)C1CCN(C2)C1)c1ccncc1 (centres unmarked) [Compound 44]                    %                    9
2  Cc1ccc2c(c1)c1c(n2CC(=O)N(C)C)CN2CCC1C2 (centres unmarked) [Compound 27]                    %                   11
3  Cc1ccc2c(c1)c1c(n2C(=O)Cc2ccc(F)cc2)CN2CCC1C2 (centres unmarked) [Compound 43]                    %                   11
4  COc1ccc(C(O)Cn2c3c(c4cc(C)ccc42)C2CCN(C3)C2)cc1F (centres unmarked) [Compound 6]                    %                   -1

Record request: inhibition at 1 µM value, item Cc1ccc2c(c1)c1c(n2CCc2ccc(C)nc2)CN2CCC1C2 (centres unmarked) [Compound 12]
0

====

Target: human recombinant dopamine D2L receptor (Homo sapiens)
Assay: Dopamine D2L radioligand binding assay
Settings: [3H]Spiperone specific binding, read-out: Percent Inhibition of ligand binding, Dopamine (1 μM ligand conc.) D2L
Parameter: inhibition at 1 µM (%)
Note: unit % is implicit; provide only the numeric part.

Use the examples below as a reference point.
> print(dat)
                                   molecule           parameter  experimental.result
1  COc1ccc(/C(C)=C/n2c3c(c4cc(C)ccc42)C2CCN(C3)C2)cc1F (stereo not drawn)  inhibition at 1 µM                   17
2  Cc1ccc2c(c1)c1c(n2CC(=O)N2CCNCC2)CN2CCC1C2 (stereo not drawn)  inhibition at 1 µM                   -8
3  C/C(=C\n1c2c(c3cc(C)ccc31)C1CCN(C2)C1)c1ccc(Cl)c(Cl)c1 (stereo not drawn)  inhibition at 1 µM                    6
4  C/C(=C/n1c2c(c3cc(C)ccc31)C1CCN(C2)C1)c1ccccc1F (stereo not drawn)  inhibition at 1 µM                    5

Record request: inhibition at 1 µM value, item Cc1ccc2c(c1)c1c(n2C#Cc2ccc(Cl)cc2)CN2CCC1C2 (stereo not drawn)
-6

Record request: inhibition at 1 µM value, item Cc1ccc2c(c1)c1c(n2CCc2nc(-c3ccccc3)cs2)CN2CCC1C2 (stereo not drawn)
-2

Record request: inhibition at 1 µM value, item Cc1ccc2c(c1)c1c(n2CC(=O)N2CCC(C)CC2)CN2CCC1C2 (stereo not drawn)
9

Record request: inhibition at 1 µM value, item Cc1ccc2c(c1)c1c(n2CCc2ccncc2)CN2CCC1C2 (stereo not drawn)
10

Record request: inhibition at 1 µM value, item Cc1ccc2c(c1)c1c(n2CC(=O)N2CCCCC2)CN2CCC1C2 (stereo not drawn)
-3

====

Target: human recombinant serotonin (5-Hydroxytryptamine) 5-HT2C receptor (Homo sapiens, UniProt P28335)
Construct: expressed in transfected cells; host or cells: Chinese hamster ovary (CHO-K1) cells
Sequence (P28335 33-458): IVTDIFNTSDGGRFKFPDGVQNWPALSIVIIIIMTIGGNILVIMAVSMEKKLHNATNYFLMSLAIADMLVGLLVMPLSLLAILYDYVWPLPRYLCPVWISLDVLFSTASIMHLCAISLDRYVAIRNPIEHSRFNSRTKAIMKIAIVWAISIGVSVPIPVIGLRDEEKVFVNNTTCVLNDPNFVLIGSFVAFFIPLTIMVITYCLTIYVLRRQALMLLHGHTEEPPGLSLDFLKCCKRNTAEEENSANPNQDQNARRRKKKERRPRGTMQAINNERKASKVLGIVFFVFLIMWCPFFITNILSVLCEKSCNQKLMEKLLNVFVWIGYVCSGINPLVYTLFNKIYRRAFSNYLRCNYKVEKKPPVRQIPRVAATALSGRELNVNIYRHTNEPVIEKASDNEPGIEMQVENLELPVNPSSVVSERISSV
Test: Serotonin 5-HT2C radioligand binding assay
Settings: [3H]Mesulergine specific binding, read-out: Percent Inhibition of ligand binding, Serotonin (1 μM ligand concentration) 5-HT2C
Reported inhibition at 1 µM values for a set of compounds
Note: unit % is implicit; provide only the numeric part.

> print(dat)
                                   compound  experimental.result
1  Cc1ccc(C(O)Cn2c3c(c4cc(C)ccc42)C2CCN(C3)C2)cc1 (centres unmarked) [Compound 5]                   53

Record request: inhibition at 1 µM value, item Cc1ccc2c(c1)c1c(n2CC(=O)c2ccc(Cl)cc2)CN2CCC1C2 (centres unmarked) [Compound 29]
74

Record request: inhibition at 1 µM value, item Cc1ccc2c(c1)c1c(n2CC(C)(O)c2ccc(F)c(Cl)c2)CN2CCC1C2 (centres unmarked) [Compound 18]
87

Record request: inhibition at 1 µM value, item Cc1ccc2c(c1)c1c(n2CC(C)(O)c2ccc(F)c(F)c2)CN2CCC1C2 (centres unmarked) [Compound 15]
87

Record request: inhibition at 1 µM value, item Cc1ccc2c(c1)c1c(n2CC(=O)N2CCOCC2)CN2CCC1C2 (centres unmarked) [Compound 26]
20
